target or system: Complement C1s subcomponent (Homo sapiens)
measurement protocol: complement C1s protease inhibitors, primary screen, biochemical, 10-compound mixtures (AID 538);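 note: 0% = enzyme wells lacking compound mixture and 100% = no-enzyme blank wells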
test settings: purified C1s, fluorogenic AMC substrate, pooled mixtures; screened at 5 µM (by protocol)
About 100 (0.16%) of roughly 62,000 compounds were called active. The entries come from a sample that favours actives as a whole.
readout kind: mean inhibition % of two 10-compound mixtures (hits give high values) (%)
Expressed in %, but write only the number.

{"compound": "Cc1c(NC(=O)Nc2ccccc2Cl)sc(=S)n1C", "u": "%", "number": -6.43}
{"compound": "Cn1c(SCC(=O)Nc2cccc(NC(=O)c3cccs3)c2)nnc1-c1ccncc1", "u": "%", "number": -18.6}

Kindly note the recorded mean inhibition % of two 10-compound mixtures (hits give high values) for CCCn1c(=O)c2ccccc2n2c(SCC(=O)/C(C#N)=C(\C)N)nnc12 , which is -0.9

// sample CCCC(=O)Nc1ccc(C(=O)NCCCn2ccnc2)cc1 , its mean inhibition % of two 10-compound mixtures (hits give high values) was 14.7

* * *

Some molecules, each annotated with its measured mean inhibition % of two 10-compound mixtures (hits give high values).
target or system: Complement C1s subcomponent (Homo sapiens)
measurement protocol: complement C1s protease inhibitors, primary screen, biochemical, 10-compound mixtures (AID 538);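 note: 0% = enzyme wells lacking compound mixture and 100% = no-enzyme blank wells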
test settings: purified C1s, fluorogenic AMC substrate, pooled mixtures; screened at 5 µM (by protocol)
About 100 (0.16%) of roughly 62,000 compounds were called active. The full list was thinned out, with actives kept by preference.
# number only, unit % dropped from output

Solved entries (count: 2):
{"molecule": "COc1ccc(-c2nnc(SCC(=O)NC3CCCCC3)o2)cc1OC", "number": -3.36}
{"molecule": "CC(C)CCNC(=O)C(C)N(C(=O)Cn1nnc(-c2ccc(F)cc2)n1)C1CCCC1 (configuration not stated)", "number": -3.08}

Note to self: mean inhibition % of two 10-compound mixtures (hits give high values) recorded for Cc1ccc2c(c1)NCC(C(=O)NC1CCC(C)CC1)O2 (configuration not stated) was -7.38

Given item CCCCn1c(SCC(=O)NCC2CCCO2)nc2ccc(N3CCOCC3)cc2c1=O (configuration not stated) , the value recorded as its mean inhibition % of two 10-compound mixtures (hits give high values) is -11

Kindly note the recorded mean inhibition % of two 10-compound mixtures (hits give high values) for Cc1ccc(-c2nc(COC(=O)c3c(C)noc3C)cs2)cc1 , which is 3.81

// field: mean inhibition % of two 10-compound mixtures (hits give high values); key: CCOC(=O)C1Cn2c(nc3c(c2=O)C(C)(CC)Cc2ccccc2-3)S1 (configuration not stated) ; value = -5.78

// sample Cc1nc2ccccc2c2oc(C(=O)NCC3CCCO3)cc12 (configuration not stated) , its mean inhibition % of two 10-compound mixtures (hits give high values) was -97.9

Briefly, mean inhibition % of two 10-compound mixtures (hits give high values) measured for c1cc(-c2nn[nH]n2)ccc1CN1CCCCC1 : 14.2

For this molecule ( Cn1c(=O)c2[nH]c(NCC3CCCO3)nc2n(-c2ccccc2)c1=O (configuration not stated) ), measured mean inhibition % of two 10-compound mixtures (hits give high values) is 64.6

Quick note, mean inhibition % of two 10-compound mixtures (hits give high values) for Cc1ccc(S(=O)(=O)NCC(=O)OCC(=O)N2CCc3ccccc32)cc1 landed at 5.33

// mean inhibition % of two 10-compound mixtures (hits give high values) lookup, molecule = O=S(=O)(CCc1nc2ccccc2o1)c1ccc(Cl)cc1 , result: 1.62

Input COc1ccc(S(=O)(=O)Nc2c(C)n(C)n(-c3ccccc3)c2=O)cc1 . Output mean inhibition % of two 10-compound mixtures (hits give high values): -40.7

Data point: CSc1cccc(NC(=O)C2CCCN2S(=O)(=O)c2ccc3c(c2)CCC(=O)N3)c1 (configuration not stated) ; mean inhibition % of two 10-compound mixtures (hits give high values) = -3.33

Quick note, mean inhibition % of two 10-compound mixtures (hits give high values) for CC(NC(=O)c1cc(-c2ccccc2)on1)c1ccccc1 (configuration not stated) landed at -25.3

Measured mean inhibition % of two 10-compound mixtures (hits give high values) of CCN(CC)C(=O)CSc1nnc(-c2cnccn2)n1-c1ccc(C)cc1 : 14.1

What the record says about CCCS(=O)(=O)N1CCC(C(=O)NCCCN(C)Cc2ccccc2)CC1 : mean inhibition % of two 10-compound mixtures (hits give high values) is 2.46

GET /value?item= C#CCN1C(=O)C(O)(CC(=O)c2cc(OC)ccc2OC)c2ccccc21 (configuration not stated) &field=mean inhibition % of two 10-compound mixtures (hits give high values) returns 11.6

Record COc1ccc(S(=O)(=O)N(C)CC(=O)Nc2ccc3c(c2)OCCO3)cc1OC . Reported mean inhibition % of two 10-compound mixtures (hits give high values): 3.88

The molecule listed as COc1ccc(NC(=O)CCNC(=O)Cn2ccc3ccccc3c2=O)c(OC)c1 shows mean inhibition % of two 10-compound mixtures (hits give high values) equal to 13.2

mean inhibition % of two 10-compound mixtures (hits give high values) measured on O=C(CCc1ccccc1)Nc1ccc(NC(=O)C2CC2)nc1 = 3.19

Entry Cc1cc(N2C(=O)C(=O)/C(=C(/O)c3ccc(Cl)cc3)C2c2cccc(Br)c2)no1 (configuration not stated) , mean inhibition % of two 10-compound mixtures (hits give high values) reported as 11.8

Looking up COc1c(Br)cc2c(C)c(C(=O)N3CCOCC3)oc2c1Br , I see its mean inhibition % of two 10-compound mixtures (hits give high values) listed as 2.58

* * *

target or system: Complement C1s subcomponent (Homo sapiens) (UniProt P09871)
Sequence (P09871 16-437 limits assumed): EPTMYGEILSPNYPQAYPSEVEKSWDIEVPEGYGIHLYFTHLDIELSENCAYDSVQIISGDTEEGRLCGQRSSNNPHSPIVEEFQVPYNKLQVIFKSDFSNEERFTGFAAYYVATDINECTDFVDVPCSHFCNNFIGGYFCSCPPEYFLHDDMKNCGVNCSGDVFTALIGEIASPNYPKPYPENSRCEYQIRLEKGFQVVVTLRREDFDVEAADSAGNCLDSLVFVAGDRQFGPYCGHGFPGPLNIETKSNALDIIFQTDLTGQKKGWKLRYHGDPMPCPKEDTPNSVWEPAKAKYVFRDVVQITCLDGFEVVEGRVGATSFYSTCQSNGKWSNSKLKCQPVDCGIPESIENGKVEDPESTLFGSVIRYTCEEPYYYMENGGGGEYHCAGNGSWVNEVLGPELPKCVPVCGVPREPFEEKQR
Sequence (P09871 438-688 limits assumed): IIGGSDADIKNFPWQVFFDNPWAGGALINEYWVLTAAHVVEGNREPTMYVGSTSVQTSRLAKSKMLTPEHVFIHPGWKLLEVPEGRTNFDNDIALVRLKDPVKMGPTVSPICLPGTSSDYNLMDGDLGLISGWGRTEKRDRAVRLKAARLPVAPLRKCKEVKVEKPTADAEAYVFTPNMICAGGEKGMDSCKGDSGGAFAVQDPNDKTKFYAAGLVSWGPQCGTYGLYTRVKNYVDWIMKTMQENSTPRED
measurement protocol: complement C1s protease inhibitors, primary screen, biochemical, 10-compound mixtures (AID 538);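 note: 0% = enzyme wells lacking compound mixture and 100% = no-enzyme blank wells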
test settings: purified C1s, fluorogenic AMC substrate, pooled mixtures; screened at 5 µM (by protocol)
Screen size: about 62,000 compounds; about 100 (0.16%) were called active. The sample holds actives, similar compounds and a random draw of the others, so the mix is not that of the screen.
readout kind: mean inhibition % of two 10-compound mixtures (hits give high values) (%)
Write it as a number; the unit % goes unstated.

{"smiles data": "CCCn1c(SCC(=O)c2ccc3c(c2)OCCO3)nnc1C(C)C", "u": "%", "number": -7.42}
{"smiles data": "CCCN(CCC)C(=O)C1c2ccccc2Oc2ccccc21", "u": "%", "number": -0.445}
{"smiles data": "CCCCN(C)C(=O)c1ccc2c(c1)N(CC)C(=O)c1ccccc1S2(=O)=O", "u": "%", "number": 5.62}
{"smiles data": "Cc1cc(NC(=O)COn2nnc3ccccc32)no1", "u": "%", "number": 0.88}

--- query ---
Form field mean inhibition % of two 10-compound mixtures (hits give high values), entry Cc1cc(C)cc(NC(=O)N2CCC(NC(=O)c3ccc(F)cc3)CC2)c1 : 3.5

* * *

target or system: Complement C1s subcomponent (Homo sapiens)
measurement protocol: complement C1s protease inhibitors, primary screen, biochemical, 10-compound mixtures (AID 538);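 note: 0% = enzyme wells lacking compound mixture and 100% = no-enzyme blank wells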
test settings: purified C1s, fluorogenic AMC substrate, pooled mixtures; screened at 5 µM (by protocol)
Out of some 62,000 compounds screened, about 100 (0.16%) were called active. The sample as a whole holds a higher share of actives than the screen did.
readout kind: mean inhibition % of two 10-compound mixtures (hits give high values) (%)
State the answer as a number, implicitly in %.

Example entries begin here.
{"compound": "O=C(CS(=O)(=O)c1cn(Cc2cccc(F)c2)c2ccccc12)N1CCCCC1", "target or system": "Complement C1s subcomponent (Homo sapiens)", "number": -0.735}
{"compound": "CCOC(=O)COc1ccc(Cl)cc1C1NC(=O)NC(C)=C1C(C)=O (stereo unspecified)", "target or system": "Complement C1s subcomponent (Homo sapiens)", "number": -13}
{"compound": "O=C(CN1CCN(c2ccccn2)CC1)NCc1cccs1", "target or system": "Complement C1s subcomponent (Homo sapiens)", "number": -12.2}
{"compound": "CCOC(=O)Cc1csc(NC(=O)CSc2nc(C)cc(=O)[nH]2)n1", "target or system": "Complement C1s subcomponent (Homo sapiens)", "number": -2.67}
{"compound": "O=C(CCS(=O)(=O)c1cccc2nonc12)NCCc1ccccc1Cl", "target or system": "Complement C1s subcomponent (Homo sapiens)", "number": -46.5}

Attention now turns to another entry.
Reading of mean inhibition % of two 10-compound mixtures (hits give high values) for CCOC(=O)CCc1c(C)c2ccc(OCc3nn[nH]n3)c(C)c2oc1=O with Complement C1s subcomponent (Homo sapiens): -25

* * *

target or system: Complement C1s subcomponent (Homo sapiens)
measurement protocol: complement C1s protease inhibitors, primary screen, biochemical, 10-compound mixtures (AID 538);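 note: 0% = enzyme wells lacking compound mixture and 100% = no-enzyme blank wells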
test settings: purified C1s, fluorogenic AMC substrate, pooled mixtures; screened at 5 µM (by protocol)
About 100 (0.16%) of roughly 62,000 compounds were called active. The sample as a whole holds a higher share of actives than the screen did.
readout kind: mean inhibition % of two 10-compound mixtures (hits give high values)

Here is how some compounds turned out for mean inhibition % of two 10-compound mixtures (hits give high values).
{"compound": "CCOC(=O)CN(C(=O)CN1CCOCC1)c1ccc(Br)cc1", "target or system": "Complement C1s subcomponent (Homo sapiens)", "result": "1.94% (inactive)"}
{"compound": "CCCc1cc(=O)n2[nH]c(SCc3ccccc3)nc2n1", "target or system": "Complement C1s subcomponent (Homo sapiens)", "result": "-2.75% (inactive)"}

Note to self: mean inhibition % of two 10-compound mixtures (hits give high values) of O=C1NC2(CCCCC2)N=C1c1ccccc1 with Complement C1s subcomponent (Homo sapiens) was 2.35% (inactive)

mean inhibition % of two 10-compound mixtures (hits give high values) for Complement C1s subcomponent (Homo sapiens) with input COC(=O)COc1ccc2oc(=O)cc(C)c2c1 equals 10.3% (inactive)

Field mean inhibition % of two 10-compound mixtures (hits give high values) (Complement C1s subcomponent (Homo sapiens)), entry CCN=C1SC(CC(=O)Nc2ccc(C)cc2)C(=O)N1CC (centres undefined) : -15% (inactive)

The compound O=S(=O)(/C=C/c1ccccc1)NCCc1ccccn1 , tested on Complement C1s subcomponent (Homo sapiens), showed mean inhibition % of two 10-compound mixtures (hits give high values) of -2.77% (inactive)

With Complement C1s subcomponent (Homo sapiens) as the test system, Cc1occc1C(=O)N1CCCc2ccccc21 showed mean inhibition % of two 10-compound mixtures (hits give high values) of -1.12% (inactive)

Item: N#Cc1cccc(NC(=O)CCC2CCCC2)c1 | System: Complement C1s subcomponent (Homo sapiens) | mean inhibition % of two 10-compound mixtures (hits give high values): -2.16% (inactive)

Measured mean inhibition % of two 10-compound mixtures (hits give high values) for this entry CCOC(=O)C1C(=O)OC2(CCCC2)C1C(=O)OCC (centres undefined) on Complement C1s subcomponent (Homo sapiens): 0.585% (inactive)

I looked up CCOC(=O)c1cccc(NC(=O)CCc2c(C)nc3ncnn3c2C)c1 and its mean inhibition % of two 10-compound mixtures (hits give high values) for Complement C1s subcomponent (Homo sapiens) was 2.35% (inactive)

CCCn1c(=NC(C)=O)c(C(=O)OCC)cc2c(=O)n3ccccc3nc21 tested on Complement C1s subcomponent (Homo sapiens) gave mean inhibition % of two 10-compound mixtures (hits give high values): -168% (inactive)
